- conditions-used: in ethyl acetate, 283.66 K
metric: solubility (mole fraction)
One number for each entry.

Quick note, solubility (mole fraction) for CC(=O)Oc1ccccc1C(=O)O landed at 0.0204

###

- conditions-used: in MIBK, 292.96 K
metric: solubility (mole fraction)

Quick note, solubility (mole fraction) for CC(=O)Oc1ccccc1C(=O)O landed at 0.0331

###

- conditions-used: in MIBK, 303.76 K
metric: solubility (mole fraction)
Give bare numbers.

Quick note, solubility (mole fraction) for O=C(O)c1ccccc1 landed at 0.195

###

- conditions-used: in 2-butanone, 301.27 K
metric: solubility (mole fraction)
Give bare numbers.

Quick note, solubility (mole fraction) for O=C(O)c1ccccc1 landed at 0.206

###

- conditions-used: in 2-butanone, 319.06 K
metric: solubility (mole fraction)
One number for each entry.

Quick note, solubility (mole fraction) for O=C(O)c1ccccc1 landed at 0.281

###

- conditions-used: in isobutyl acetate, 320.16 K
metric: solubility (mole fraction)

Quick note, solubility (mole fraction) for CC(=O)Oc1ccccc1C(=O)O landed at 0.046

###

- conditions-used: in n-butanol, 306.16 K
metric: solubility (mole fraction)

Quick note, solubility (mole fraction) for CC(=O)Oc1ccccc1C(=O)O landed at 0.0531

###

- conditions-used: in n-butanol, 277.66 K
metric: solubility (mole fraction)

Quick note, solubility (mole fraction) for CC(=O)Oc1ccccc1C(=O)O landed at 0.0145

###

- conditions-used: in n-butanol, 296.56 K
metric: solubility (mole fraction)

Quick note, solubility (mole fraction) for O=C(O)c1ccccc1 landed at 0.176

###

- conditions-used: in n-butanol, 276.92 K
metric: solubility (mole fraction)
Give bare numbers.

Quick note, solubility (mole fraction) for O=C(O)c1ccccc1 landed at 0.116

###

- conditions-used: in MIBK, 325.16 K
metric: solubility (mole fraction)
Numbers only.

Quick note, solubility (mole fraction) for O=C(O)c1ccccc1 landed at 0.281

###

- conditions-used: in 2-butanone, 307.1 K
metric: solubility (mole fraction)
Answers are plain numbers.

Quick note, solubility (mole fraction) for O=C(O)c1ccccc1 landed at 0.229

###

- conditions-used: in n-propanol, 284.15 K
metric: solubility (mole fraction)
Numbers only.

Quick note, solubility (mole fraction) for O=C(O)c1ccccc1 landed at 0.133

###

- conditions-used: in 2-butanone, 284.29 K
metric: solubility (mole fraction)
Numbers only.

Quick note, solubility (mole fraction) for O=C(O)c1ccccc1 landed at 0.148

###

- conditions-used: in n-propanol, 326.16 K
metric: solubility (mole fraction)
Answers are plain numbers.

Quick note, solubility (mole fraction) for O=C(O)c1ccccc1 landed at 0.291

###

- conditions-used: in n-propanol, 315.41 K
metric: solubility (mole fraction)
Answers are plain numbers.

Quick note, solubility (mole fraction) for O=C(O)c1ccccc1 landed at 0.242

###

- conditions-used: in n-butanol, 318.75 K
metric: solubility (mole fraction)
Answers are plain numbers.

Quick note, solubility (mole fraction) for CC(=O)Oc1ccccc1C(=O)O landed at 0.0883

###

- conditions-used: in ethyl acetate, 323.56 K
metric: solubility (mole fraction)
Give bare numbers.

Quick note, solubility (mole fraction) for O=C(O)c1ccccc1 landed at 0.278

###

- conditions-used: in ethyl acetate, 289.86 K
metric: solubility (mole fraction)

Quick note, solubility (mole fraction) for CC(=O)Oc1ccccc1C(=O)O landed at 0.0254

###

- conditions-used: in ethyl acetate, 318.65 K
metric: solubility (mole fraction)

Quick note, solubility (mole fraction) for O=C(O)c1ccccc1 landed at 0.252
